The measured values listed here are drawn from ChEMBL document CHEMBL5608109.

# viability at 10 µM listing for each entry below
- System: Hepatocyte spheroids
- Assay Remarks: This assay model using primary human hepatocyte (PHH) spheroids, which are cultured in Williams E medium. After spheroid formation, cells are exposed to compounds in an FBS-free culture medium. […] Imaging is performed on an Opera Phenix High-Content Screening System, allowing quantification of proliferation as a readout for evaluating the effects of chemical probes on hepatocyte regeneration.
- Format: functional
- Condition: Concentration 10 uM, read-out: Cell Viability

{"Molecule": "CCc1ccccc1C(=O)Nc1n[nH]c2c(C)c(F)c(C3C(C#N)=C(C)N(C)C(C)=C3C#N)cc12", "viability at 10 µM": "84.2% (non-toxic)"}
{"Molecule": "NS(=O)(=O)c1cc(NC(=O)Cc2ccccc2)ccc1Oc1cccc(Cl)c1", "viability at 10 µM": "19.3% (toxic)"}
{"Molecule": "c1ccc(N2CCN(Cc3nc4ccccc4[nH]3)CC2)nc1", "viability at 10 µM": "110% (non-toxic)"}

Query: Requested read-out viability at 10 µM, target or system Hepatocyte spheroids, entry CNCc1ccccc1-c1csc([C@@H](C)Nc2nc(C)nc3cc(OC)c(OC)cc23)c1
Reply: 0.873% (toxic)

Query: Which viability at 10 µM is reported with Hepatocyte spheroids for this entry: COc1ccc2c(O[C@@H]3C[C@H]4C(=O)N[C@]5(C(=O)O)CC5/C=C\CCCCC[C@H](NC(=O)OC5CCCC5)C(=O)N4C3)cc(-c3csc(NC(=O)C(C)C)n3)nc2c1C (stereo partly specified) ?
Reply: 0.711% (toxic)

Query: Any idea what viability at 10 µM came out for COc1ccc2c(c1)O[C@@H](c1ccc(OC)c(OC)c1)C[C@H]2NC(=O)C1(c2ccc3c(c2)OC(F)(F)O3)CC1 on Hepatocyte spheroids?
Reply: 88.5% (non-toxic)
